system: TAOK3; settings: concentration: 1 μM, replicates: in singlicate; n = 1;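 note: KINOMEscan kinase panel screen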
MEASURED_METRIC: %Inh (%)
Quick reminder: number only, in %, skip the unit.

Record excerpt, results attached:
COMPOUND	MEASURED_ON	%Inh (%)
Nc1n[nH]c2ncc(-c3ccccc3)cc12	TAOK3	2
CN1C(=O)C(Nc2ccccc2)=C(c2ccccc2)C1=O	TAOK3	0
FC(F)(F)c1ccc(-c2ncn(CCCN3CCOCC3)c2-c2ccncc2)cc1	TAOK3	0
CCn1c(-c2nonc2N)nc2ccccc21	TAOK3	3
O=C(Nc1n[nH]c2nc(-c3ccccc3)c(Cl)cc12)C1CC1	TAOK3	0
COc1cc2ncn(-c3cc(OCc4ccc(S(C)(=O)=O)cc4)c(C(N)=O)s3)c2cc1OC	TAOK3	0
Cc1c(Cn2c(C)nn3c(=O)cc(N4CCO[C@H](C)C4)nc23)cccc1C(F)(F)F	TAOK3	0
COc1cc2ncn(-c3cc(OCCCc4ccccc4)c(C(N)=O)s3)c2cc1OC	TAOK3	0

QUERY: Query: %Inh; subject: COC(=O)c1c(-c2ccccc2)c2cc(C)ccc2c(=O)n1Cc1ccccc1
RESULT: 0

QUERY: Also COC(=O)c1c(-c2ccccc2)c2cc(Br)ccc2c(=O)n1Cc1ccc(S(C)(=O)=O)cc1 , if possible.
RESULT: 0

QUERY: Consider next the compound COc1cc2ncn(-c3cc(OCc4ccncc4)c(C(N)=O)s3)c2cc1OC in the same way.
RESULT: 0

QUERY: Same for O=C(Nc1n[nH]c2nc(-c3ccccc3)c(Br)cc12)C1CC1
RESULT: 16

QUERY: Please answer likewise for COc1ccc(-c2cc3c(C)nc(N)nc3n([C@H]3CC[C@H](OCCO)CC3)c2=O)cn1
RESULT: 0

QUERY: Another compound: CN(C)c1cc(-c2ccc3c(N)n[nH]c3c2)nc(N)n1
RESULT: 0

QUERY: Lookup Nc1n[nH]c2nnc(-c3ccccc3)c(-c3ccccc3)c12
RESULT: 0

QUERY: One more compound: CCS(=O)c1ccc(-c2coc3ccc(-c4nnc(C)o4)cc23)cc1 (stereo not shown)
RESULT: 0

QUERY: Then this compound: CCC(=O)c1c(-c2ccccc2)c2cc(Cl)ccc2c(=O)n1Cc1cc(S(C)(=O)=O)n(CC(N)=O)n1
RESULT: 0
